Target: pre-miR-21 WT
Experiment: Microscale thermophoresis (MST) binding to pre-miR-21 WT
Conditions: read-out: Kd, binding of the pre-miR-21 RNA Dicer site
RECORDED_METRIC: pKd
Remember the convention: pKd equals -log10 of concentration in molar.

Query block: Query pKd for CN1CCN(c2ccc(-c3ccc4[nH]c(-c5ccc(OCCCC(=O)NCCCN=[N+]=[N-])cc5)nc4c3)cc2)CC1 [Compound 1]
Result block: 4.70
